Target: T1, CCL5_HUMAN (human, UniProt P13501 24-91)
T1 sequence: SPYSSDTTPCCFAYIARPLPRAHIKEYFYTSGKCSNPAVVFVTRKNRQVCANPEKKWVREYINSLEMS
Assay: yeast surface display FACS
Readout label: binding result

Binder: P1063_AMBTR (other) QSEVGKNVPGCGDTETLEAPPQEKPPYYEYKDEEGCTQKVLESWFQAGERSTGRGQKKRGHGRRPSRVLRTVDCRKNCTVGITALPDGHLCLVPRGDPFTRGGAIKYGCYLGDCASGHCQHRYETVSCRLPAPDTTAKPYYVTPEK
Measured value: binds
--
Binder: P698_RHISA (other) NEDDSSDYYDASPMNCSSMSVNSTMGWLSMNCTMSCNGTTFPLSNSTHCFHSYTNLTVQSRMETMTYNCSVGTCSNGTCVENGTTTTCW
Measured value: binds
--
Binder: P1006_AMBCA (other) DTIGGIPGCGDPATTSAPEDQPKHYAVRTDKNGCKVMVIGTWMTKEDHNLLPPYISKERAPSGKVQLPASCKKNCHGKLKNLPNGTPCREVFGDLRRRRKHIKDGCKVGKCQNGLCVSEERIISCYLPPNITDPRPTHGPLAE
Measured value: binds
--
Binder: P1011_AMBTR (other) EKDTPKNIPGCEDAGTTAAPPADNPKHYAVYTDKNGCTFKVIGTWMTKEDHRRLPVSLRRVRASSGRVKLPASCQKICKHSVKKFPEGTPCRLVTRDPIKGKNHIKNGCIRGYCSSGVCVSDNRSISCYVLPNNTELTSPSGSFAE
Measured value: binds

Okay, next one:
Record request: binding result value, item P1005_AMBMA (other) EKDTPKNIPGCGDTGTTAAPPADNPKHFAVYTDKHGCTIKVIGTWMTKEDHSRLPVSLRRVRASSGRVMLPASCQKICNDTVKNFPEGTPCRLVTGDPIKGKNHIKDGCIRGYCSSGVCVSDKRNISCYVPPN
binds
